Tested on: U2OS
method: Multiplex assay against U2OS
Assay type: toxicity, cell-based
studyConditions: human, 12 h, 10 µM, compound concentration 10 uM, replicate 1

# molecule, readoutUnit, Population Pyknosed Nuclei (%)
records = [
    ("COc1ccc(-c2ccc3ncc4c(c3c2)n(-c2ccc(N3CCNCC3)c(C(F)(F)F)c2)c(=O)n4C)cn1.O=C(O)/C=C\\C(=O)O", "%", 65),
    ("Cc1c[nH]c2nccc(Oc3c(F)cc(Nc4cc(Cl)nc(N)n4)cc3F)c12", "%", 20),
    ("C[C@]12CC[C@@H]3c4ccc(O)cc4CC[C@H]3[C@@H]1CC[C@@H]2O", "%", 11),
    ("CNC(=O)Nc1ccc(-c2nc(N3CC4CCC(C3)O4)c3cnn(C4CCC5(CC4)OCCO5)c3n2)cc1", "%", 42),
    ("CC(C)CC(=O)Nc1[nH]nc2c1CN(C(=O)C1CCN(C)CC1)C2(C)C", "%", 13),
    ("COc1cc2ncn(-c3cc(OCc4ccccc4C(F)(F)F)c(C(N)=O)s3)c2cc1OC [GW843682X]", "%", 15),
    ("COc1ccccc1CN[C@H]1C2CCN(CC2)[C@H]1C(c1ccccc1)c1ccccc1", "%", 24),
    ("C=CC(=O)Nc1cccc(Oc2nc(Nc3ccc(N4CCN(C)CC4)cc3OC)ncc2Cl)c1", "%", 12),
    ("CC(C)OC(=O)N1CCC(Oc2ncnc3c2cnn3-c2ccc(S(C)(=O)=O)cc2F)CC1", "%", 11),
    ("Cc1cccc(CN2CCN(C(c3ccccc3)c3ccc(Cl)cc3)CC2)c1.Cl.Cl (configuration not stated)", "%", 16),
    ("O=C(c1cc2c(cc1F)OC(c1ccc(F)cc1)(c1ccc(Cl)cc1Cl)O2)N1CCOCC1 (configuration not stated)", "%", 21),
    ("CC(C)NC(=O)N1CC[C@H](NC2=Nc3cc(F)ccc3N(CC(F)F)c3ccc(Cl)cc32)C1", "%", 15),
    ("COc1cc(Nc2nccc(-c3cnn4nc(OC)ccc34)n2)cc(C(F)(F)F)c1", "%", 11),
    ("Cc1ccc2c(c1)c1c(n2CCc2ccc(C)nc2)CCN(C)C1 [LATREPIRDINE]", "%", 24),
    ("Cc1nc(N2CC[C@H](O)C2)ncc1-c1cc(C(F)(F)F)cc2[nH]ncc12", "%", 5),
    ("CCCSc1nc(N[C@@H]2C[C@H]2c2ccc(F)c(F)c2)c2nnn([C@@H]3C[C@H](OCCO)[C@@H](O)[C@H]3O)c2n1", "%", 19),
    ("Cl.O=C(O)c1cc(-c2ccc(C3CCNCC3)cc2)c2ccc(-c3ccc(C(F)(F)F)cc3)cc2c1", "%", 11),
    ("CCc1nn(CCCN2CCN(c3cccc(Cl)c3)CC2)c(=O)n1CCOc1ccccc1.Cl [NEFAZODONE HYDROCHLORIDE]", "%", 31),
    ("CC(C)Oc1ccccc1C(=O)Nc1ccccc1C(=O)Nc1cccc(S(=O)(=O)C(F)(F)F)c1", "%", 24),
    ("CCc1ccc(OCc2ccccc2C(=O)Nc2ccc3nc(C)cc(N)c3c2)cc1.Cl", "%", 68),
    ("CNC(=O)Nc1ccc2c(c1)[C@@]1(CC2)OC(=O)N(CC(=O)N(Cc2ccc(F)cc2)[C@@H](C)C(F)(F)F)C1=O", "%", 11),
    ("CN1CCN(Cc2ccc(Nc3ncc(Cl)c(Nc4ccccc4S(=O)(=O)N(C)C)n3)cc2)CC1", "%", 29),
]

###

System: U2OS
method: Multiplex assay against U2OS
Type: toxicity, cell-based
studyConditions: human, 48 h, 1 µM, compound concentration 1 uM, replicate 2
The entries below are paired with their reported Population Tubulin-Different-Phenotype (%).
assayReadout: Population Tubulin-Different-Phenotype (%)

# molecule, readoutUnit, quantitativeResult
data = [
    ("CNC(=O)Nc1ccc(-c2nc(N3CC4CCC(C3)O4)c3cnn(C4CCC5(CC4)OCCO5)c3n2)cc1", "%", 37),
    ("CC(C)(C)NC[C@H](O)COc1nsnc1N1CCOCC1", "%", 21),
    ("COC(=O)C1=C(C)NC(C)=C(C(=O)OCCCN2CCC(c3ccccc3)(c3ccccc3)CC2)[C@H]1c1cccc([N+](=O)[O-])c1", "%", 100),
    ("COc1ccccc1CN[C@H]1C2CCN(CC2)[C@H]1C(c1ccccc1)c1ccccc1", "%", 21),
    ("CC(C)NC(=O)N1CC[C@H](NC2=Nc3cc(F)ccc3N(CC(F)F)c3ccc(Cl)cc32)C1", "%", 22),
    ("CC(C)c1noc(N2CCC(COc3ccc(-c4ccc(S(C)(=O)=O)cc4)nc3)CC2)n1", "%", 12),
    ("CC(C)OC(=O)N1CCC(Oc2ncnc3c2cnn3-c2ccc(S(C)(=O)=O)cc2F)CC1", "%", 9),
    ("CCCSc1nc(N[C@@H]2C[C@H]2c2ccc(F)c(F)c2)c2nnn([C@@H]3C[C@H](OCCO)[C@@H](O)[C@H]3O)c2n1", "%", 9),
    ("Cc1ccc2c(c1)c1c(n2CCc2ccc(C)nc2)CCN(C)C1 [LATREPIRDINE]", "%", 10),
    ("CCc1nn(CCCN2CCN(c3cccc(Cl)c3)CC2)c(=O)n1CCOc1ccccc1.Cl [NEFAZODONE HYDROCHLORIDE]", "%", 46),
    ("O=C(c1cc2c(cc1F)OC(c1ccc(F)cc1)(c1ccc(Cl)cc1Cl)O2)N1CCOCC1 (stereo not drawn)", "%", 16),
    ("Cl.O=C(O)c1cc(-c2ccc(C3CCNCC3)cc2)c2ccc(-c3ccc(C(F)(F)F)cc3)cc2c1", "%", 32),
    ("CC(C)Oc1ccccc1C(=O)Nc1ccccc1C(=O)Nc1cccc(S(=O)(=O)C(F)(F)F)c1", "%", 41),
    ("CCc1ccc(OCc2ccccc2C(=O)Nc2ccc3nc(C)cc(N)c3c2)cc1.Cl", "%", 78),
    ("C[C@]12CC[C@@H]3c4ccc(O)cc4CC[C@H]3[C@@H]1CC[C@@H]2O", "%", 17),
    ("COc1cc2ncn(-c3cc(OCc4ccccc4C(F)(F)F)c(C(N)=O)s3)c2cc1OC [GW843682X]", "%", 34),
    ("COc1ccc(-c2ccc3ncc4c(c3c2)n(-c2ccc(N3CCNCC3)c(C(F)(F)F)c2)c(=O)n4C)cn1.O=C(O)/C=C\\C(=O)O", "%", 90),
    ("COc1cc(Nc2nccc(-c3cnn4nc(OC)ccc34)n2)cc(C(F)(F)F)c1", "%", 20),
]

###

Test system: U2OS
method: Multiplex assay against U2OS
Type: toxicity, cell-based
studyConditions: human, 12 h, 1 µM, compound concentration 1 uM, replicate 2

# compound, measuredTarget, readoutUnit, Population Healthy Nuclei (%)
records = [
    ("CCc1nn(CCCN2CCN(c3cccc(Cl)c3)CC2)c(=O)n1CCOc1ccccc1.Cl [NEFAZODONE HYDROCHLORIDE]", "U2OS", "%", 89),
    ("CC(C)OC(=O)N1CCC(Oc2ncnc3c2cnn3-c2ccc(S(C)(=O)=O)cc2F)CC1", "U2OS", "%", 91),
    ("C[C@]12CC[C@@H]3c4ccc(O)cc4CC[C@H]3[C@@H]1CC[C@@H]2O", "U2OS", "%", 86),
    ("CC1=C(C(=O)Nc2cc3cn[nH]c3cc2F)C(c2ccc(C(F)(F)F)cc2)CC(=O)N1 (centres undefined)", "U2OS", "%", 93),
    ("Cc1ccc(C)c(Oc2ccncc2C(=O)N2CCN(C3CC3)c3ccccc32)c1", "U2OS", "%", 75),
    ("Cc1ccc2c(c1)c1c(n2CCc2ccc(C)nc2)CCN(C)C1 [LATREPIRDINE]", "U2OS", "%", 67),
    ("COc1cc(Nc2nccc(-c3cnn4nc(OC)ccc34)n2)cc(C(F)(F)F)c1", "U2OS", "%", 86),
    ("Cl.O=C(O)c1cc(-c2ccc(C3CCNCC3)cc2)c2ccc(-c3ccc(C(F)(F)F)cc3)cc2c1", "U2OS", "%", 83),
    ("Cc1ccccc1C(c1ccccc1C)N1C2CCC1CC(O)(c1ccccc1)C2 (centres undefined)", "U2OS", "%", 81),
]

###

The entries below are paired with their reported Population Tubulin-Different-Phenotype (%).
System: HEK-293T
method: Multiplex assay against HEK293T;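 further: share of the cells with healthy nuclei that show this phenotype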
Assay type: toxicity, cell-based
studyConditions: human, 24 h, 10 µM, compound concentration 10 uM, replicate 2
assayReadout: Population Tubulin-Different-Phenotype (%)

# molecule, quantitativeResult
rows = [
    ("CCc1ccc(OCc2ccccc2C(=O)Nc2ccc3nc(C)cc(N)c3c2)cc1.Cl", 100),
    ("CCCSc1nc(N[C@@H]2C[C@H]2c2ccc(F)c(F)c2)c2nnn([C@@H]3C[C@H](OCCO)[C@@H](O)[C@H]3O)c2n1 [TICAGRELOR]", 95),
    ("COc1cc2ncn(-c3cc(OCc4ccccc4C(F)(F)F)c(C(N)=O)s3)c2cc1OC [GW843682X]", 96),
    ("CC(C)OC(=O)N1CCC(Oc2ncnc3c2cnn3-c2ccc(S(C)(=O)=O)cc2F)CC1", 29),
    ("C=CC(=O)Nc1cccc(Oc2nc(Nc3ccc(N4CCN(C)CC4)cc3OC)ncc2Cl)c1", 12),
]
